Where do the numbers come from? From patent US11214803B2.

method.notes: Cynomolgus monkey tolerability, coagulation (Example 34)
Format: in vivo
conditions.used: cynomolgus monkeys, 35 mg/kg subcutaneously, day 44
endpoint: PT (s)
// note: answer is a bare numeric in s

Prompt line: Supply recorded PT for 1198872 (TGTATGTCAGAAGAGT; chemically modified gapmer, further chemistry not given here) [compound 1198872] here.
Response line: 10

Prompt line: Answer with the recorded PT of 1198623 (CTAAGTAAGGTTTCCC; modified gapmer, further chemistry not given here) [compound 1198623] only.
Response line: 10

Prompt line: Give recorded PT. 958499 (ATTAGAGTATGTGGCA; 3-10-3 cEt gapmer, further chemistry not given here) [compound 958499]
Response line: 9

---

Test system: Yap1 mRNA
method.notes: Dose-dependent inhibition of human Yap1 in SNU-449 cells (Example 9, RTS36584)
Assay type: cell-based
conditions.used: 31.3 nM, free uptake, approximately 48 hours
Strand notation (5' to 3'): a small letter for the sugar, then the base; units joined by * are phosphorothioate-linked, units joined directly phosphodiester-linked; [ ] holds rarer units or linkages, { } end groups; capitals alone tell only the bases. e = 2'-O-(2-methoxyethyl) (MOE); k = constrained ethyl (cEt); [5mC] = 5-methylcytosine; d = 2'-deoxy (DNA)
endpoint: % UTC (Yap1 mRNA) (% UTC)
Numeric only. Scale: % UTC

Prompt line: Check the records and state % UTC (Yap1 mRNA) for 1198203 (kG*kG*dA*dA*dA*dT*dT*dG*dT*d[5mC]*dT*e[5mC]*eA*eT*kG*k[5mC]) [compound 1198203]
Response line: 71

Prompt line: Specify reported % UTC (Yap1 mRNA) for the substance shown: 1198555 (kA*kT*kT*dA*dG*dA*dG*dT*dA*dT*dG*dT*kG*kG*k[5mC]*eA; antisense) [compound 1198555]
Response line: 73

Prompt line: // fetch % UTC (Yap1 mRNA) given entry 1198788 (kA*eA*kG*dT*dG*dT*dA*dT*dG*dT*d[5mC]*dA*eG*eA*kA*kG) [compound 1198788]
Response line: 64

Prompt line: Report % UTC (Yap1 mRNA) for 1198353 (kA*kG*kT*dG*dT*dA*dT*dG*dT*d[5mC]*dA*dG*kA*eA*kG*eA; antisense) [compound 1198353]
Response line: 60

---

Test system: Yap1 mRNA
method.notes: Dose-dependent inhibition of human Yap1 in A-431 cells (Example 8, 10,000 cells per well, RTS4814)
Format: cell-based
conditions.used: 31.3 nM; A-431 cells, 10,000 cells per well, free uptake, approximately 48 hours, RTS4814
Strand notation (5' to 3'): a small letter for the sugar, then the base; units joined by * are phosphorothioate-linked, units joined directly phosphodiester-linked; [ ] holds rarer units or linkages, { } end groups; capitals alone tell only the bases. k = constrained ethyl (cEt); [5mC] = 5-methylcytosine; d = 2'-deoxy (DNA)
Binning of Yap1 mRNA, % UTC into classes: 0 (below 60 % UTC), 1 (60 % UTC to below 70 % UTC), 2 (70 % UTC or more)

Prompt line: For the record 1074578 (DNA kG*k[5mC]*kT*dT*dA*dT*dT*dT*d[5mC]*dT*dG*dT*d[5mC]*kA*kT*kG) [compound 1074578] , report the class its Yap1 mRNA, % UTC corresponds to.
Response line: 1

Prompt line: Entry 1075968 (kT*kA*kT*dT*dT*dA*dA*dG*d[5mC]*d[5mC]*dA*dA*dA*k[5mC]*k[5mC]*kG; antisense) [compound 1075968] belongs to which category?
Response line: 2

Prompt line: # classify by Yap1 mRNA, % UTC band: 1074609 (DNA k[5mC]*kT*kA*dG*dT*dT*dA*d[5mC]*dA*dT*d[5mC]*dA*dT*k[5mC]*kT*k[5mC]) [compound 1074609]
Response line: 1

Prompt line: Which class holds 1074610 (DNA kT*k[5mC]*kT*dA*dG*dT*dT*dA*d[5mC]*dA*dT*d[5mC]*dA*kT*k[5mC]*kT) [compound 1074610] ?
Response line: 0

Prompt line: Input 1074313 (antisense kT*kG*kA*dT*dA*dT*dT*d[5mC]*d[5mC]*dG*d[5mC]*dA*dT*kT*kG*k[5mC]) [compound 1074313] ; output its category
Response line: 0

Prompt line: Assign a category based on measured Yap1 mRNA, % UTC for 1075744 (kT*kT*k[5mC]*dG*dG*dG*dT*dT*dA*dG*d[5mC]*dA*dG*kA*k[5mC]*kT; antisense) [compound 1075744] and give only the class name.
Response line: 0

Prompt line: Could you place 1074756 (kG*k[5mC]*kA*d[5mC]*dT*dT*dT*dT*dA*d[5mC]*dA*dT*dT*kA*kG*kG) [compound 1074756] in its proper category? Many thanks.
Response line: 0

Prompt line: Record 1076490 (k[5mC]*k[5mC]*kA*dA*dA*dA*dT*dA*dG*dG*dT*dG*dA*kG*kT*k[5mC]; antisense) [compound 1076490] — which class?
Response line: 0

Prompt line: # bin label for 1074801 (kA*k[5mC]*kA*dA*dA*dT*dA*dG*dT*dG*d[5mC]*dT*dT*kT*kG*kG; antisense) [compound 1074801]
Response line: 2

Prompt line: GET /class?item= 1074274 (antisense kG*kT*kT*d[5mC]*dT*dT*dA*dT*dG*dG*dT*dT*dT*kA*kT*kA) [compound 1074274]
Response line: 0

Prompt line: Pick a category. Item: 1074762 (kG*k[5mC]*kT*dA*d[5mC]*d[5mC]*d[5mC]*dA*dA*dT*dA*d[5mC]*dA*kA*k[5mC]*k[5mC]; antisense) [compound 1074762]
Response line: 2

Prompt line: Class label required: 1074250 (antisense k[5mC]*kT*kG*dA*dT*d[5mC]*dG*dA*dT*dG*dT*dG*dA*kT*kT*kT) [compound 1074250]
Response line: 1

Prompt line: Which band does 1076370 (antisense kG*kA*kT*dT*dA*dT*dT*d[5mC]*dG*dG*dT*dA*dT*kT*kT*kT) [compound 1076370] fall in?
Response line: 0

Prompt line: Which class does 1074594 (DNA kT*kA*kG*dG*dA*dG*d[5mC]*dA*dA*dG*dT*d[5mC]*dT*kT*kG*kT) [compound 1074594] fall in?
Response line: 0

Prompt line: State the class of the substance shown: 1075047 (antisense kT*kA*kA*dA*dA*dT*dT*dA*dG*dA*d[5mC]*dT*d[5mC]*k[5mC]*k[5mC]*k[5mC]) [compound 1075047]
Response line: 2

Prompt line: Using the reported Yap1 mRNA, % UTC, which band applies to 1076430 (k[5mC]*kG*kT*dT*dA*dT*dA*dA*dG*dA*dT*dG*dT*kG*k[5mC]*kT; antisense) [compound 1076430] ?
Response line: 0

Prompt line: Sort into band: 1074251 (antisense kT*k[5mC]*kT*dG*dA*dT*d[5mC]*dG*dA*dT*dG*dT*dG*kA*kT*kT) [compound 1074251]
Response line: 2

Prompt line: Which class does 1076291 (kG*kA*kT*dT*dA*dA*dT*dG*dG*dT*dG*dG*d[5mC]*kA*kT*kT; antisense) [compound 1076291] fall in?
Response line: 2

Prompt line: Hey, which category is 1074315 (antisense kG*kA*kT*dT*dG*dA*dT*dA*dT*dT*d[5mC]*d[5mC]*dG*k[5mC]*kA*kT) [compound 1074315] in, do you know?
Response line: 0

Prompt line: Which class holds 1075112 (kA*kT*kA*dT*dA*dG*dG*dA*dA*dT*dA*dT*dG*kG*kG*kT; antisense) [compound 1075112] ?
Response line: 2

Prompt line: Which category does the recorded Yap1 mRNA, % UTC put 1074850 (kT*kT*kG*dT*dT*dA*dT*dG*dA*dT*dA*dG*dG*k[5mC]*kA*k[5mC]; antisense) [compound 1074850] in?
Response line: 1

---

method.notes: Tolerability in Balb/c mice, body and organ weights (Example 12)
Assay type: in vivo
conditions.used: male Balb/c mice, 50 mg/kg s.c. twice a week for four weeks (8 treatments), end of study (day 26)
Strand notation (5' to 3'): a small letter for the sugar, then the base; units joined by * are phosphorothioate-linked, units joined directly phosphodiester-linked; [ ] holds rarer units or linkages, { } end groups; capitals alone tell only the bases. k = constrained ethyl (cEt); [5mC] = 5-methylcytosine; d = 2'-deoxy (DNA)
endpoint: Liver weight (g)
Report the value in g with no unit label.

Prompt line: Could you please provide reported Liver weight for 958509 (kA*kT*kG*dT*dT*dA*dT*dG*dT*dT*dT*dG*dG*kG*kT*kG; antisense) [compound 958509] ? Thanks!
Response line: 1.50

Prompt line: Check the records and state Liver weight for 958721 (kG*kT*kA*dG*dT*dA*dT*dA*dA*dT*dG*dA*dG*kT*kT*kA; antisense) [compound 958721]
Response line: 1.45

Prompt line: For 958375 (antisense kA*kA*kA*dG*d[5mC]*d[5mC]*dT*dT*dA*dG*dA*dG*dT*k[5mC]*kA*kA) [compound 958375] , write its Liver weight.
Response line: 2.00

Prompt line: Find the measured Liver weight of 958729 (kG*kT*k[5mC]*dA*dG*dT*dT*dA*dT*d[5mC]*d[5mC]*dT*dA*kT*k[5mC]*kT; antisense) [compound 958729] and report it.
Response line: 1.32

Prompt line: Please supply the value of reported Liver weight for the item 958498 (kG*kA*kG*dT*dA*dT*dG*dT*dG*dG*d[5mC]*dA*dA*kT*kA*kA; antisense) [compound 958498]
Response line: 1.51

Prompt line: Provide measured Liver weight value, entry: 958603 (kT*kG*kG*dT*dA*dT*dG*dA*dA*dT*dT*d[5mC]*dT*kG*kA*kA; antisense) [compound 958603]
Response line: 1.80

Prompt line: Please give the documented Liver weight of 958554 (kA*kA*k[5mC]*d[5mC]*dA*dT*dT*dA*dT*dT*dA*d[5mC]*dT*k[5mC]*k[5mC]*kT; antisense) [compound 958554]
Response line: 1.05

Prompt line: Supply Liver weight value. Item: 958553 (k[5mC]*k[5mC]*kA*dT*dT*dA*dT*dT*dA*d[5mC]*dT*d[5mC]*d[5mC]*kT*kG*kT; antisense) [compound 958553]
Response line: 1.01

Prompt line: State its Liver weight for this substance: 958454 (antisense kG*kG*kA*dA*dT*dG*dA*dG*d[5mC]*dT*d[5mC]*dG*dA*kA*k[5mC]*kA) [compound 958454]
Response line: 0.68

Prompt line: Return value of Liver weight for input 958736 (kG*kT*kG*dA*dT*dA*dT*dG*dG*dA*dT*dT*d[5mC]*kT*kG*kT; antisense) [compound 958736] , no commentary.
Response line: 1.95

Prompt line: Please give the documented Liver weight of 958540 (kA*kT*kT*d[5mC]*dT*dA*dT*d[5mC]*d[5mC]*dA*dG*dG*dG*kT*k[5mC]*kA; antisense) [compound 958540]
Response line: 1.53

Prompt line: Supply Liver weight value. Item: 958590 (kA*kG*kG*dT*dA*dT*dA*dA*d[5mC]*dT*dG*dG*dG*k[5mC]*kA*kA) [compound 958590]
Response line: 1.76

Prompt line: Indicate its recorded Liver weight; the substance in question is 958725 (kG*kT*k[5mC]*dA*dG*dT*dT*dA*dT*d[5mC]*d[5mC]*dT*dA*kT*k[5mC]*k[5mC]; antisense) [compound 958725]
Response line: 1.23

Prompt line: Indicate the recorded Liver weight value for this substance: 958499 (ATTAGAGTATGTGGCA; 3-10-3 cEt gapmer, further chemistry not given here) [compound 958499]
Response line: 1.44
